// provenance: patent US20230348369A1

- system.tested: human NAMPT (Homo sapiens)
- measurement.description: Human recombinant enzyme assay (NMN fluorescence biochemical assay, activation of NAMPT)
- measurement.conditions: Table A; human recombinant NAMPT, NMN formation, 60 min
property.measured: AC1.4 Human (µM)

compound=O=C(NCc1ccc(Cl)cc1)N[C@H]1C[C@]2(CCN(C(=O)c3ccc(F)cc3)C2)C1 system_tested="human NAMPT (Homo sapiens)" measured=11.8

[I] O=C(CCCCCNC(=O)NCc1ccc(Cl)cc1)Nc1ccc(F)cc1
[II] COc1ccc(CNC(=O)NC2CC3(C2)CC(C(=O)N[C@H](CO)c2ccccc2)C3)cc1 (stereo partly drawn)
[III] O=C(NCCCCC1CCN(C(=O)Cc2cn[nH]c2)CC1)NCc1ccc(Cl)cc1
Sort low-to-high on AC1.4 Human, please. Please respond with the labels ordered as the question requires.
III, I, II

[a] NC(=O)c1ccc(CNC(=O)NC2CCN(C(=O)c3ccccc3)CC2)cc1
[b] O=C(NCCCCC1CCN(C(=O)c2ccccc2-c2nnn[nH]2)CC1)NCc1ccc(Cl)cc1
Please state the entry with greater AC1.4 Human among a and b . The response must carry the label of the picked entry.
a
(a: 17.5 µM, b: 0.9 µM)

* * *

- system.tested: endogenous NAMPT (Homo sapiens)
- Construct: stimulate the endogenous NAMPT in a native cellular environment; endogenous in cells; host or cells: SH-SY5Y neuroblastoma cells
- Sequence (P43490 whole entry): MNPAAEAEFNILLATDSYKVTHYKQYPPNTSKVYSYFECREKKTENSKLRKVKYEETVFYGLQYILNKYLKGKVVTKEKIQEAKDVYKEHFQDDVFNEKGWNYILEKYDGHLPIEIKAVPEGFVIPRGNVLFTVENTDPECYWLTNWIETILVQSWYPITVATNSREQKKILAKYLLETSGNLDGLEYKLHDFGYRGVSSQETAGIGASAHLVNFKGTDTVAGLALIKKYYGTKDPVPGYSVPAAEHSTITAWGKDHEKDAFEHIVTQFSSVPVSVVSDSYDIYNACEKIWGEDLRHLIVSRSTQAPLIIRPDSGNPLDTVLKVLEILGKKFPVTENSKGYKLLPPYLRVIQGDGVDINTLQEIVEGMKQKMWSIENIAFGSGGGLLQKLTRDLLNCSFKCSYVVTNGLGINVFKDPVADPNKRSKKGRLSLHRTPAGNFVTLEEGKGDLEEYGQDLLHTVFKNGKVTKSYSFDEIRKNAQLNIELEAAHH
- measurement.description: Cellular NAD+ modulation assay in neuroblastoma SH-SY5Y cells
- Type: cell-based
- measurement.conditions: Table B; SH-SY5Y cells, cellular NAD levels, doxorubicin, 40 hours; read-out: EC50
property.measured: EC50 (nM)

[I] CN(C(=O)CCCCCNC(=O)NCc1ccc(Cl)cc1)c1ccccc1
[II] Cc1ccc(C(=O)N2CC[C@]3(C2)C[C@H](NC(=O)NCc2ccc(Cl)cc2)C3)cc1
[III] CC(C)(C)OC(=O)N1CCC2(CC1)CC2CNC(=O)NCc1ccc(CO)cc1 (stereo not shown)
Please rank everything listed above by EC50, with the minimum value first. Please respond with the labels ordered as the question requires.
I, III, II
(I: 100 nM, III: 2200 nM, II: 12900 nM)

* * *

- system.tested: human NAMPT (Homo sapiens, UniProt P43490)
- Sequence (P43490 whole entry): as above
- measurement.description: Human recombinant enzyme assay (NMN fluorescence biochemical assay, activation of NAMPT)
- measurement.conditions: Table A; human recombinant NAMPT, NMN formation, 60 min
property.measured: AC1.4 Human (µM)

molecule="COc1ccc(CNC(=O)NC2CC3(C2)CC(C(=O)N[C@H](C)c2ccccc2)C3)cc1 (stereo partly drawn) [Compound 45]" measured=6.6

[A] CN1CCN(CC2CC3(C2)CC(NC(=O)NCc2ccc(Cl)cc2)C3)C(c2ccccc2)C1 (stereo not drawn) [Compound 254]
[B] CC1CCC(=O)N1CC1CC2(C1)CC(NC(=O)NCc1ccc(Cl)cc1)C2 (stereo not drawn) [Compound 241]
[C] CC(C)(C)OC(=O)NC1CC2(CC(NC(=O)NCc3ccncc3)C2)C1 (stereo not drawn) [Compound 6]
[D] O=C(NCc1ccncc1)NC1CC2(C1)CC(NC(=O)c1ccccc1)C2 (stereo not drawn) [Compound 15]
[E] CN(C(=O)CCCCCNC(=O)NCc1ccc(Cl)cc1)c1ccncc1 [Compound 265]
Sort low-to-high on AC1.4 Human, please. Please respond with the labels ordered as the question requires.
E, A, B, C, D
(E: 0.8 µM, A: 1.5 µM, B: 2.7 µM, C: 4.5 µM, D: 10.4 µM)

* * *

- system.tested: endogenous NAMPT (Homo sapiens)
- Construct: stimulate the endogenous NAMPT in a native cellular environment; endogenous in cells; host or cells: SH-SY5Y neuroblastoma cells
- measurement.description: Cellular NAD+ modulation assay in neuroblastoma SH-SY5Y cells
- Assay type: cell-based
- measurement.conditions: Table B; SH-SY5Y cells, cellular NAD levels, doxorubicin, 40 hours
- Experimental: The compounds described herein were also assayed for their ability to stimulate the endogenous NAMPT in a native cellular environment in the cellular NAD+ modulation assay, which measures the ability of the compound to modulate cellular NAD levels. Increased levels of NAD are expected by compounds that permeate the cells and activate the catalytic activity of the endogenous NAMPT. […]
property.measured: AC0.3 (µM)

compound=COc1ccc(CNC(=O)NCCCCCOc2ccccc2)cc1 property_measured=AC0.3 result_unit=µM measured=0.6
compound=Cc1cccc(C(=O)N2CC[C@]3(C2)C[C@@H](NC(=O)NCc2ccc(Cl)cc2)C3)c1 property_measured=AC0.3 result_unit=µM measured=0.3
compound="COc1ccc(CNC(=O)NC2CC3(C2)CC(C(=O)N2CCCc4ccccc42)C3)cc1 (centres unmarked)" property_measured=AC0.3 result_unit=µM measured=0.3
compound="O=C(NCc1ccc(Cl)cc1)NC1CC2(C1)CC(NS(=O)(=O)c1ccccc1)C2 (centres unmarked)" property_measured=AC0.3 result_unit=µM measured=0.6
compound=[2H]C([2H])(CCCC1CCN(C(=O)c2ccccc2)CC1)NC(=O)NCc1cnco1 property_measured=AC0.3 result_unit=µM measured=0.3

* * *

- system.tested: human NAMPT (Homo sapiens, UniProt P43490)
- measurement.description: Human recombinant enzyme assay (NMN fluorescence biochemical assay, activation of NAMPT)
- measurement.conditions: Table A; human recombinant NAMPT, NMN formation, 60 min
property.measured: AC1.4 Human (µM)

Observe how each entry below is paired with its result.
compound="O=C(NCc1ccc(Cl)cc1)NC1CC2(C1)CC(Oc1ccncc1)C2 (centres unmarked)" system_tested="human NAMPT (Homo sapiens, UniProt P43490)" measured=3.9
compound="COc1ccc(CNC(=O)NC2CC3(C2)CC(C(=O)N[C@@H]2CCc4ccccc4C2)C3)cc1 (some centres unmarked)" system_tested="human NAMPT (Homo sapiens, UniProt P43490)" measured=2.6
compound="COc1ccc(CNC(=O)NC2CC3(C2)CC(C(=O)N2CCCc4ccccc42)C3)cc1 (centres unmarked)" system_tested="human NAMPT (Homo sapiens, UniProt P43490)" measured=0.1

[1] Cc1ccccc1C(=O)NC1CC2(CC(NC(=O)NCc3ccc(Cl)cc3)C2)C1 (centres unmarked)
[2] COc1ccc(CNC(=O)NC2CC3(C2)CN(C(=O)c2cccc(S(C)(=O)=O)c2)C3)cc1
Please state the entry with greater AC1.4 Human among 1 and 2 . The response must carry the label of the picked entry.
2

[P] COc1ccc(CNC(=O)N[C@H]2C[C@]3(CCN(C(=O)OC(C)(C)C)C3)C2)cc1
[Q] [2H]C([2H])(CCCC1CCN(C(=O)c2ccccc2)CC1)NC(=O)NCc1cnco1
// returns P or Q , whichever has the lower AC1.4 Human The response must carry the label of the picked entry.
Q

* * *

- system.tested: human NAMPT (Homo sapiens)
- measurement.description: Human recombinant enzyme assay (NMN fluorescence biochemical assay, activation of NAMPT)
- measurement.conditions: Table A; human recombinant NAMPT, NMN formation, 60 min
property.measured: AC1.4 Human (µM)

Observe how each entry below is paired with its result.
compound="COc1ccc(CNC(=O)NC2CC3(C2)CC(C(=O)N2CCS(=O)(=O)CC2)C3)cc1 (centres unmarked) [Compound 232]" property_measured="AC1.4 Human" measured=3.6
compound="COc1ccc(CNC(=O)NC2CC3(C2)CN(S(=O)(=O)c2ccccc2Cl)C3)cc1 [Compound 116]" property_measured="AC1.4 Human" measured=8.0

[I] O=C(CCCCCNC(=O)NCc1ccc(Cl)cc1)NC1CCCCC1 [Compound 257]
[II] COc1ccc(CNC(=O)NC2CC3(C2)CC(C(=O)N2CCCC2c2ccncc2)C3)cc1 (centres unmarked) [Compound 58]
[III] COc1ccc(CNC(=O)NC2CC3(C2)CN(C(=O)Nc2cnc(C)nc2)C3)cc1 [Compound 133]
Sort low-to-high on AC1.4 Human, please. Please respond with the labels ordered as the question requires.
I, II, III

* * *

- system.tested: human NAMPT (Homo sapiens)
- measurement.description: Human recombinant enzyme assay (NMN fluorescence biochemical assay, activation of NAMPT)
- measurement.conditions: Table A; human recombinant NAMPT, NMN formation, 60 min
property.measured: AC1.4 Human (µM)

Observe how each entry below is paired with its result.
compound=Cc1cccc(C(=O)NCCCCCNC(=O)NCc2ccc(Cl)cc2)c1 property_measured="AC1.4 Human" result_unit=µM measured=1.5
compound=COc1ccc(CNC(=O)NCCCCC2CCN(C(=O)c3ccccc3C)CC2)cc1 property_measured="AC1.4 Human" result_unit=µM measured=0.1
compound="COc1ccc(CNC(=O)NC2CC3(C2)CC(C(=O)N2CCN(C(=O)c4ccccc4)CC2)C3)cc1 (stereo not shown)" property_measured="AC1.4 Human" result_unit=µM measured=1.2
compound="COc1ccc(CNC(=O)NC2CC3(C2)CC(C(=O)NCCc2cn[nH]c2)C3)cc1 (stereo not shown)" property_measured="AC1.4 Human" result_unit=µM measured=11.5
compound=O=C(NCCCCC1CCN(C(=O)c2ccccc2)CC1)NCc1ccncc1 property_measured="AC1.4 Human" result_unit=µM measured=0.1

[1] COc1ccc(CNC(=O)NC2CC3(C2)CN(C(=O)c2cccc(N4CCCC4=O)c2)C3)cc1
[2] COC(=O)C1CC2(CC(NC(=O)NCc3ccc(OC)cc3)C2)C1 (stereo not shown)
// returns 1 or 2 , whichever has the lower AC1.4 Human The response must carry the label of the picked entry.
1
